tested.on: PiB′
assay.notes: UV-visible absorption titration, single-site global fit
Format: binding, synthetic construct
applied.conditions: PDB 8TNB is labelled mefuparib-bound PiB in b31 but PiB′ in b20 and b22
measured.quantity: pKd
The quantity pKd is defined as the negative base-10 logarithm of the molar concentration.

Problem: Observed pKd on PiB′ for CNCc1ccc(-c2cc3cc(F)cc(C(N)=O)c3o2)cc1 [mefuparib] , please.
Result: 6.46

====

tested.on: PiB
assay.notes: UV-visible absorption titration, single-site global fit
Listed molecules paired with reported Kd
Give the value, in units of nM, as a plain number.

- smiles: "CNCc1ccc(-c2cc3cc(F)cc(C(N)=O)c3o2)cc1"
  tested.on: "PiB"
  unit.annotation: "nM"
  Kd: 190

Continue with the molecule presented below.
Problem: Request the reported Kd associated with "NC(=O)c1cccc2cn(-c3ccc([C@@H]4CCCNC4)cc3)nc12"
Result: 600

====

tested.on: PiB′
assay.notes: UV-visible absorption titration, single-site global fit
Type: binding, synthetic construct
measured.quantity: pKd
The quantity pKd is defined as the negative base-10 logarithm of the molar concentration.

Problem: Request the reported pKd associated with "NC(=O)c1cccc2cn(-c3ccc([C@@H]4CCCNC4)cc3)nc12"
Result: 6.26

Cited source for all entries: paper PMC11290694
